From: PubChem BioAssay AID1645862

# system-tested: UniProtKB P40818
# test-protocol: Ubiquitin-specific protease 8 inhibitors, concentration-effect, biochemical, validation of initial actives (AID 1645862);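 further: potency reflects inhibition of USP8 cleavage of a ubiquitin rhodamine substrate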
# protocol-conditions: recombinant USP8 deubiquitinase activity assay
The source made the active and inactive calls. How the calls were made is not given here.
Labels: active, inactive

INSERT INTO results (compound, system_tested, assigned_category) VALUES
  ('COc1cc(Cl)c(NC(=O)C2Cc3ccccc3N2C(=O)c2ccccc2)c(OC)c1 (stereo not given)', 'UniProtKB P40818', 'inactive'),
  ('Cc1[nH]nc(NC(=O)C2COc3ccccc3O2)c1-c1ccccc1 (stereo not given)', 'UniProtKB P40818', 'active'),
  ('O=C(Nc1ccccc1C(=O)NC1CCSC1)c1ccc([N+](=O)[O-])cc1 (stereo not given)', 'UniProtKB P40818', 'inactive'),
  ('CCOc1ccc2nc(NC(=O)c3ccc4ccccc4n3)sc2c1', 'UniProtKB P40818', 'inactive'),
  ('Cc1cc(C(=O)CSc2nc3ccccc3[nH]2)c(C)n1Cc1ccco1', 'UniProtKB P40818', 'inactive'),
  ('COc1ccccc1N1CCN(C(=O)c2ccc3c(=O)n(CCc4ccccc4)c(=O)[nH]c3c2)CC1', 'UniProtKB P40818', 'inactive'),
  ('O=C(NCc1ccc(F)cc1)c1cccc(Nc2nc3ccccc3n3cnnc23)c1', 'UniProtKB P40818', 'inactive'),
  ('O=C(COc1ccc(N2CC(C(=O)NCc3ccccc3)CC2=O)cc1)Nc1ccc(F)cc1 (stereo not given)', 'UniProtKB P40818', 'inactive'),
  ('CCOc1ccccc1-c1cc(NC(=O)c2cc3ccc4cccnc4c3[nH]2)on1', 'UniProtKB P40818', 'inactive'),
  ('Cc1sc(NC(=O)c2ccc(S(=O)(=O)N(C)Cc3ccccc3)cc2)c(C(N)=O)c1C', 'UniProtKB P40818', 'inactive');

###

# system-tested: Ubiquitin carboxyl-terminal hydrolase 8 (Homo sapiens) (UniProt P40818)
# Sequence (P40818 whole entry, looked up): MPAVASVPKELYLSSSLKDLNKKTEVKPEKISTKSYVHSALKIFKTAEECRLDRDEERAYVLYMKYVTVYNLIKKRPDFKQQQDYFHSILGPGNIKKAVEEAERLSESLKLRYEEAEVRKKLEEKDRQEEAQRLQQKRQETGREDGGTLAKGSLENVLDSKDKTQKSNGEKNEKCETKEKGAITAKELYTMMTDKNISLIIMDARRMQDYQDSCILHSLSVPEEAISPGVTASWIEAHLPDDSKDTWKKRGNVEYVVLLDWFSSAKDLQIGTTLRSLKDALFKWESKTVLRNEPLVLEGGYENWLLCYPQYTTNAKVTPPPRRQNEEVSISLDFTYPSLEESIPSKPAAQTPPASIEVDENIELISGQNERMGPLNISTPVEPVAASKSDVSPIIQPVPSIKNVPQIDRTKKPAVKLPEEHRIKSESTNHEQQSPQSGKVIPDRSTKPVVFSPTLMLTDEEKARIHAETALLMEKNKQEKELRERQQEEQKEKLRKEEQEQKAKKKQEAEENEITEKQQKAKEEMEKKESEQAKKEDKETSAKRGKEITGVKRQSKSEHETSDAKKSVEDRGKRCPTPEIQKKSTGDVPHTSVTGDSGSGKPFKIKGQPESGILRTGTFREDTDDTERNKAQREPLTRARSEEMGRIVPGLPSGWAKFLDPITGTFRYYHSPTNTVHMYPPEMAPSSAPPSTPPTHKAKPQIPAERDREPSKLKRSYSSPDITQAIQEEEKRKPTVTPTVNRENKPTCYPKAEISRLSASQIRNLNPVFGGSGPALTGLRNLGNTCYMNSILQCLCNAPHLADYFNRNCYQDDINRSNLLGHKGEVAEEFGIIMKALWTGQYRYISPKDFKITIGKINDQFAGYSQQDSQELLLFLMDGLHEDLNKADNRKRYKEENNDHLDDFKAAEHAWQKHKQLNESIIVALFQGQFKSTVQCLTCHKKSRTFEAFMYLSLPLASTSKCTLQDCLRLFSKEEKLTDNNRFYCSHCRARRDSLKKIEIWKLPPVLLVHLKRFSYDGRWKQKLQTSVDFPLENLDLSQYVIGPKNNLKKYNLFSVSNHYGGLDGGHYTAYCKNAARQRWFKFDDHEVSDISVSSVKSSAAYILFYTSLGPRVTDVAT
# test-protocol: Ubiquitin-specific protease 8 inhibitors, concentration-effect, biochemical, validation of initial actives (AID 1645862);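 further: potency reflects inhibition of USP8 cleavage of a ubiquitin rhodamine substrate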
# protocol-conditions: recombinant USP8 deubiquitinase activity assay
Active and inactive are the calls of the source. No rule for the calls is given here.
parameter: IC50

INSERT INTO results (compound, experimental_value) VALUES
  ('COc1ccc(-c2nc(-c3cn(-c4ccccc4)nn3)no2)c(OC)c1', '> 40 µM (inactive)'),
  ('O=C(NC1(O)C(=O)c2ccccc2C1=O)c1ccc(-c2csnn2)cc1', '5.57 µM'),
  ('CC(=O)Nc1ccc(C(=O)/C=C2\NCCc3cc4c(cc32)OCCCO4)cc1', '> 40 µM (inactive)'),
  ('COc1cccc(NC(=O)CCc2nnc3n(CCCOC(C)C)c(=O)c4ccccc4n23)c1', '> 40 µM (inactive)'),
  ('C[C@@H]1CO[C@@H]2C3=C(C(=O)C=CC3=O)[C@H]3OC(=O)[C@@H]4CCC5[C@@H]1CCC52C34 (some centres undefined)', '25 µM'),
  ('CCN(CC)C(=O)c1sc(NC(=O)c2cc(-c3ccccc3Cl)nc3ccccc23)c(C(N)=O)c1C', '> 40 µM (inactive)'),
  ('Cc1ccc(C(=O)NCc2ccc(C(=O)Nc3ccc(Cl)cc3)o2)cc1', '> 40 µM (inactive)'),
  ('NS(=O)(=O)c1cccc(NC(=O)/C=C/c2cn(-c3ccccc3)nc2-c2cccc([N+](=O)[O-])c2)c1', '> 40 µM (inactive)'),
  ('O=C(/C=C/C=C/C=C/C1CCCCC1)NC1=C[C@@](O)(/C=C/C=C/C=C/C(=O)NC2=C(O)CCC2=O)[C@@H]2O[C@@H]2C1=O', '> 40 µM (inactive)');

###

# system-tested: Ubiquitin carboxyl-terminal hydrolase 8 (Homo sapiens)
# test-protocol: Ubiquitin-specific protease 8 inhibitors, concentration-effect, biochemical, validation of initial actives (AID 1645862);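 further: potency reflects inhibition of USP8 cleavage of a ubiquitin rhodamine substrate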
# protocol-conditions: recombinant USP8 deubiquitinase activity assay
The source made the active and inactive calls. No rule for the calls is given here.
Labels: true (1) (active), false (0) (inactive)

INSERT INTO results (molecule, assigned_category) VALUES
  ('CCOc1ccc(-c2nnc(-c3cnc4onc(C5CCCC5)c4c3)o2)cc1', 'false (0)'),
  ('COc1cc2c(=O)n(CCC(=O)NC3CCCC3)c(=O)n(CC(=O)Nc3cccc(Cl)c3)c2cc1OC', 'false (0)'),
  ('CCOc1ccccc1NC(=O)Cn1c(=O)n(CCC(=O)NCCc2ccc(OC)c(OC)c2)c(=O)c2ccccc21', 'false (0)'),
  ('N#Cc1cn2c(nc1-c1ccc(Cl)cc1)nc1ccccc12', 'false (0)'),
  ('CC(=O)c1ccc(NC(=O)C2CC(=O)Nc3nc(SCc4ccccc4)nn32)cc1 (stereo not given)', 'false (0)'),
  ('O=C(NCc1ccc2c(c1)OCO2)c1cn(-c2cccc(Cl)c2)nn1', 'false (0)'),
  ('Cc1cc(C)c(O)c(-c2cc(C(=O)Nc3ccccc3Cl)[nH]n2)c1', 'false (0)'),
  ('COc1ccc(C(=O)NC(Cc2ccccc2)c2nc3ccccc3[nH]2)c(OC)c1 (stereo not given)', 'true (1)'),
  ('COc1ccc(Cl)cc1NC(=O)Cn1c(=O)n(CCCCC(=O)NCCc2ccccc2)c(=O)c2ccccc21', 'false (0)'),
  ('COc1ccc(NC(=O)Cn2c(=O)n(CCC(=O)NCc3ccccc3)c(=O)c3sccc32)cc1Cl', 'false (0)'),
  ('COc1ccc(NC(=O)c2nnc(C(=O)NCCN3CCCCCC3)s2)cc1', 'false (0)'),
  ('COC(=O)c1ccc2c(=O)n(CCCCCC(=O)NCCc3ccc(OC)c(OC)c3)c(=O)[nH]c2c1', 'false (0)'),
  ('O=C(c1ccccn1)N1CCC2(CC1)CC1(CO2)Nc2ccccc2-n2cccc21 (stereo not given)', 'true (1)'),
  ('COc1ccc(N/C=C/c2onc(C)c2[N+](=O)[O-])c(OC)c1', 'false (0)'),
  ('Cc1ccc(CNC(=O)c2nc(-c3ccc4c(c3)OCC(=O)N4C)no2)cc1', 'false (0)'),
  ('O=C(/C=C/c1ccc(Br)cc1)Nc1cnc2ccccc2c1', 'false (0)'),
  ('COc1cc(NC(=O)Cn2nc(-c3ccc(F)cc3)ccc2=O)ccc1-n1cnnn1', 'false (0)'),
  ('Cc1cccc(N2C(=O)/C(=C\c3cc(C#N)n(C)c3C)c3ccccc3C2=O)c1', 'false (0)'),
  ('O=C(Cn1c(COc2ccccc2)nc2ccccc21)Nc1cc(Cl)ccc1Cl', 'false (0)'),
  ('O=C(NC(Cc1ccccc1)c1nc2ccccc2[nH]1)C1CC1 (stereo not given)', 'true (1)'),
  ('COc1ccc(-c2nc3n(n2)C(CC(=O)Nc2cccc4ccccc24)C(=O)N3)cc1 (stereo not given)', 'false (0)'),
  ('COc1cccc(NC(=O)C2C3C=CC4(O3)C2C(=O)N(CCc2ccc(Cl)cc2)C4C(=O)NC2CCCCC2)c1 (stereo not given)', 'false (0)'),
  ('O=c1cc(-c2ccc(O)c(O)c2)oc2cc(O)cc(O)c12', 'true (1)'),
  ('COc1ccc(NC(=O)Cn2c(=O)n(Cc3ccco3)c(=O)c3ccc(C(=O)NC4CCCC4)cc32)cc1', 'false (0)'),
  ('Cc1ccc(NC(=O)Cn2cnc3c(c(C)c(C)n3-c3ccccc3)c2=O)c(C)c1', 'false (0)'),
  ('Cc1c(-c2nn3c(-c4ccco4)nnc3s2)cccc1[N+](=O)[O-]', 'false (0)'),
  ('COc1cc2c(=O)n(CC3CCCO3)c(=O)n(CC(=O)c3ccc4c(c3)OCO4)c2cc1OC (stereo not given)', 'false (0)'),
  ('O=C(Nc1ccc2c(c1)CCC2)C1Cc2ccccc2CN1C(=O)c1ccccc1 (stereo not given)', 'false (0)'),
  ('CC(C)[C@H]1CC[C@@]2(CO2)[C@H]2C(=O)OCC(C(=O)O)=C[C@H]12', 'true (1)'),
  ('CC(C)=CCc1c2c(c3occ(-c4ccc(O)c(O)c4)c(=O)c3c1O)C=CC(C)(C)O2', 'true (1)'),
  ('O=c1c(S(=O)(=O)c2cc(F)cc(F)c2)c[nH]c2cc(Cl)ccc12', 'true (1)'),
  ('COCCNC(=O)Cn1c(=O)n(Cc2ccc(C(=O)NCc3ccc(C)cc3)cc2)c(=O)c2ccccc21', 'false (0)'),
  ('COc1ccc(S(=O)(=O)NCc2ccc3c(c2)cc(C)n3C)cc1', 'false (0)'),
  ('CN(C)c1ccc(S(=O)(=O)N2CCCCC2)cc1NC(=O)COc1ccccc1', 'false (0)'),
  ('COc1ccc(Cl)cc1NC(=O)c1nc(-c2cn(-c3ccccc3)nn2)no1', 'false (0)'),
  ('Cc1noc(-c2ccnc(-n3cnc(C(=O)NCC4CC4)c3)c2)n1', 'false (0)'),
  ('N#Cc1cc(C(=O)c2cc(Cl)ccc2O)cn(-c2ccccn2)c1=O', 'false (0)'),
  ('Cc1ccc2[nH]cc(S(=O)(=O)c3cc(F)cc(F)c3)c(=O)c2c1', 'false (0)'),
  ('CCOc1ccc2c(c1)c(=O)c(C(=O)c1ccc(F)cc1)cn2CC(=O)Nc1ccccc1', 'false (0)'),
  ('CC(C)=CCC/C(C)=C/COc1ccc(/C=C2\C(=O)N(O)[C@@H](C)C(=O)N2O)cc1', 'false (0)');
